B1: PTPRD (parent)
chain: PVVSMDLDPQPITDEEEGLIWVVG

Variants of: B1
Test Description: protein stability index of a GFP-peptide fusion (GPS, HEK-293T) (PSI 1-6); higher = more stable;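 also: lentivirally expressed fusions sorted by FACS into six bins by GFP to DsRed ratio, PSI derived from sequencing read proportions per bin multiplied by bin number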
Condition Notes: c terminus: a fixed tail appended
Please go through the items and note down their protein stability index.
The reply should be a number, written without any unit.

Entry under test: PVQSMDLDPQPITDEEEGLIWVVG [V3Q] . Its protein stability index was 3.87

Lookup result for PVVSMDLDPQMITDEEEGLIWVVG [P11M] ; measured protein stability index: 4.27

Recorded result, PVVSMDLDPQPSTDEEEGLIWVVG [I12S] , protein stability index: 3.64

Reported protein stability index ( PVVSMDVDPQPITDEEEGLIWVVG [L7V] ) = 4.01

response.value for PVVSMDLDPQPITDCEEGLIWVVG [E15C] (field: protein stability index) = 3.25

Short answer for PVVSMDLDPQHITDEEEGLIWVVG [P11H] : protein stability index was 3.8

The variant identified as PVVSMDRDPQPITDEEEGLIWVVG [L7R] registered its protein stability index at 4.4

Query PVVSMDLDPQPITDEEEGLIWDVG [V22D] yields protein stability index of 5.28

For this variant ( PVVSMDLDPQPITDEEEGLIWLVG [V22L] ), measured protein stability index is 3.94

Lab note: PVVSMDLDPQPITDEEEGLIWVCG [V23C] gave protein stability index of 3.9

Noted for PVVSMDLDPQPITDEEIGLIWVVG [E17I] : its protein stability index reads 1.8
